system: human SMAD7 mRNA; experiment: Antisense inhibition of human SMAD7 mRNA expression in Hep3B cells by 3-10-3 cEt gapmers, 10,000 nM, electroporation (Example 2); assay type: cell-based; details: Hep3B cells, electroporation, 10,000 nM antisense oligonucleotide, approximately 24 hours, RTS5062, relative to untreated control cells
Strand notation (5' to 3'): a small letter for the sugar, then the base; units joined by * are phosphorothioate-linked, units joined directly phosphodiester-linked; [ ] holds rarer units or linkages, { } end groups; capitals alone tell only the bases. k = constrained ethyl (cEt); [5mC] = 5-methylcytosine; d = 2'-deoxy (DNA)
// % inhibition of SMAD7 mRNA expression lookup, one value per entry

{"Substance": "799579 (kA*kA*k[5mC]*d[5mC]*dT*dT*d[5mC]*d[5mC]*dG*dA*dA*dA*dG*kG*kA*k[5mC]; antisense) [compound 799579]", "% inhibition of SMAD7 mRNA expression [%]": 51}
{"Substance": "799522 (antisense kT*kT*kT*dA*dA*dA*dG*dA*d[5mC]*dA*dG*dG*dT*kT*kT*k[5mC]) [compound 799522]", "% inhibition of SMAD7 mRNA expression [%]": 32}
{"Substance": "799831 (antisense kT*kA*k[5mC]*dT*dT*dG*dG*dA*dA*dG*dA*dG*dT*kT*kT*kG) [compound 799831]", "% inhibition of SMAD7 mRNA expression [%]": 18}
